# credit: patent US20240409645A1

Exercise: for every item that follows, state its recorded OD450 nm (P.E. binding ELISA).
Biological target: T1, human IL-2Rβ (human, UniProt P14784 27-240, limits assumed)
T1 construct: Recombinant human IL-2Rβ protein, coated on ELISA plates or immobilized on a CM5 chip; also called hu IL-2R; interleukin 2 receptor β-chain
T1 sequence: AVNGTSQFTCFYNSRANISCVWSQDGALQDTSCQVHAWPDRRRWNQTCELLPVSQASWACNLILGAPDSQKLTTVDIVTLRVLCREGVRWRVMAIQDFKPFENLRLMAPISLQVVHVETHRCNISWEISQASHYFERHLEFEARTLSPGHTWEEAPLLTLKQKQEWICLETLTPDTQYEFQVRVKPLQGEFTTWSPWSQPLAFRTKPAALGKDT
Experiment: P.E. binding ELISA, human IL-2Rβ coated
One number for each entry, in OD450 nm.

Worked cases, answers included:
FJ1427_P035MP06G10 (VHH, Soluble VHH in periplasmic extract (P.E.); also called Clone nr) VHH: QVQLVESGGGLVQAGGSLRLSCAASGDVFVRYTMAWFRQAPGKEREFVASVTDSGRTTEYVDSVKGRFTVSRDNAKNTAYLQMNNLKPEDTAVYYCAANTDYFQIRSLNLNTWGQGTQVTVSS :: 1
FJ1427_P035MP06C05 (VHH, Soluble VHH in periplasmic extract (P.E.); also called Clone nr) VHH: EVQLVESGGGLVQAGGSLRLSCVVSGDVFVRYTMAWFRQAPGKGREFVAVVTDSGRTTEYVDSVKGRFTVSRDNAKNTVYLQMNNLKPEDTAVYYCAANTDYFQIRSVDNNAWGQGTQVTVSS :: 0.58
FJ1427_P035MP06F08 (VHH, Soluble VHH in periplasmic extract (P.E.); also called Clone nr; 542) VHH: QVQLVESGGGLVQAGGSLRLSCAASGDVFVRYTMAWFRQAPGKEREFVASVTDSGRTTEYVDSVKGRFTVSRDNAKNTAYLQMNNLKPEDTAVYYCAANTDYFQIRSLNLNTWGQGTQVTVSS :: 0.343

Below: the item to evaluate.
Task: What OD450 nm (P.E. binding ELISA) value was documented for this binder, FJ1427 P035MP06C09 (VHH, Soluble VHH in periplasmic extract (P.E.); also called Clone nr) VHH: EVQLVESGGGLVQAGGSLRLSCAASGDVFVRYTMAWFRQTPGKEREFVASVTDSGRTTEYVDSVKGRFTVSRDNAKNTVYLQMNNLKPEDTAVYYCAANTDYFQIRSLRANTWGQGTQVTVSS ?
Output: 0.69
